The measurements presented in this section are drawn from patent US20260070987A1.

# measured target: equine FcRn (large alpha subunit p51) / equine beta-2-microglobulin complex, biotinylated (equine) (UniProt P30441)
# test: SPR (Biacore), pH 6
Give measured pKd for each item. Keep answers brief.
Numbers only, as −log10 of the molar value.

{"binder": "equine IgG4 D312H (antibody, part only; not given: Variable domains, not shown: another chain or arm of the molecule) constant: ASTTAPKVFPLASHSAATSGSTVALGCLVSSYFPEPVTVSWNSGALTSGVHTFPSVLQSSGLYSLSSMVTVPASSLKSQTYICNVAHPASSTKVDKKIVIKECNGGCPAECLQVGPSVFIFPPKPKDVLMISRTPTVTCVVVDVGHDFPDVQFNWYVDGVETHTATTEPKQEQFNSTYRVVSVLPIQHKHWLSGKEFKCKVNNKALPAPVERTISKPTGQPREPQVYVLAPHRDELSKNKVSVTCLVKDFYPTDIDIEWKSNGQPEPETKYSTTPAQLDSDGSYFLYSKLTVETNRWQQGTTFTCAVMHEALHNHYTEKSVSKSPGK", "pKd": 7.69}

# ---- query binder ----
Q) # pKd lookup, item equine IgG1 D312A (antibody, part only; not given: variable domains, not shown: another chain or arm of the molecule) constant: ASTTAPKVFALAPGCGTTSDSTVALGCLVSGYFPEPVKVSWNSGSLTSGVHTFPSVLQSSGFYSLSSMVTVPASTWTSETYICNVVHAASNFKVDKRIEPIPDNHQKVCDMSKCPKCPAPELLGGPSVFIFPPNPKDTLMITRTPEVTCVVVDVSQENPDVKFNWYMDGVEVRTATTRPKEEQFNSTYRVVSVLRIQHQAWLSGKEFKCKVNNQALPQPIERTITKTKGRSQEPQVYVLAPHPDELSKSKVSVTCLVKDFYPPEINIEWQSNGQPELETKYSTTQAQQDSDGSYFLYSKLSVDRNRWQQGTTFTCGVMHEALHNHYTQKNVSKNPGK
A) 8.01
